Tested target: AgFus1
Test protocol: SPOT peptide array binding signal intensity (averaged, normalized) (arbitrary units (background-subtracted, floor 0; scale differs between SH3 domains)); higher = stronger binding of the SH3 domain to the peptide
Catalogue of binders with associated SPOT peptide array binding signal intensity
Just the number.

Study these solved cases before continuing.
• NSMRPPLLIPAATTK = 384
• YRRKSIPFAPHQITA = 131
• PPIPNAPLSPAPAVP = 2

According to the records, this binder NFFRKKLGIPRKLKR displays SPOT peptide array binding signal intensity of 142

According to the records, this binder FVLRYYILIPHEQWD displays SPOT peptide array binding signal intensity of 1800

According to the records, this binder TPRLSLPRLPNKHHW displays SPOT peptide array binding signal intensity of 15.5

According to the records, this binder QLMKNLPKIPLLNDI displays SPOT peptide array binding signal intensity of 336

According to the records, this binder FYNRTAFQLPGDARV displays SPOT peptide array binding signal intensity of 12

According to the records, this binder VRVKKRPLIRPLNSS displays SPOT peptide array binding signal intensity of 223
